- Tested on: cathepsin targets
- procedure summary: Cathepsin targets of the compounds (Table 4)
- Type: biochemical, rat
- conditions used: cathepsin target(s) inhibited; General = all cathepsins
endpoint: Target

Worked examples, 8 compounds total:
[
  {
    "compound": "CCC[C@H](NC(=O)C1O[C@H]1C(=O)O)C(=O)N[C@@H](Cc1ccc(O)cc1)C(N)=O (some centres unmarked) [Compound 75]",
    "endpoint": "Target",
    "result": "Cat B & Z"
  },
  {
    "compound": "CC(C)C[C@H](NC(=O)[C@H]1O[C@@H]1C(=O)NCc1cccc2ccccc12)C(=O)N[C@@H](Cc1ccc(O)cc1)C(N)=O [Compound 27]",
    "endpoint": "Target",
    "result": "Cat B"
  },
  {
    "compound": "CCC[C@H](NC(=O)C1O[C@@H]1C(=O)NCC(=O)O)C(=O)N[C@@H](Cc1ccc(O)cc1)C(N)=O (some centres unmarked) [Compound 79]",
    "endpoint": "Target",
    "result": "Cat B"
  },
  {
    "compound": "Cc1ccc(C[C@H](NC(=O)C2O[C@@H]2C(=O)NCC(=O)O)C(=O)NCc2cccc3ccccc23)cc1 (some centres unmarked) [Compound 121]",
    "endpoint": "Target",
    "result": "Cat Z"
  },
  {
    "compound": "CCNC(=O)C1OC1C(=O)N[C@@H](CC(C)C)C(=O)N[C@@H](Cc1ccc(O)cc1)C(N)=O (some centres unmarked) [Compound 33]",
    "endpoint": "Target",
    "result": "Cat B"
  },
  {
    "compound": "CC(=O)NCCNC(=O)C1O[C@@H]1C(=O)N[C@@H](CC(C)C)C(=O)N[C@@H](Cc1ccc(O)cc1)C(N)=O (some centres unmarked) [Compound 20]",
    "endpoint": "Target",
    "result": "Cat B"
  },
  {
    "compound": "Cc1ccc(C[C@H](NC(=O)C2O[C@H]2C(=O)NCC(=O)O)C(=O)N[C@@H](Cc2ccc(O)cc2)C(N)=O)cc1 (some centres unmarked) [Compound 80]",
    "endpoint": "Target",
    "result": "Cat B & Z"
  },
  {
    "compound": "Cc1ccc(C[C@H](NC(=O)C2OC2C(=O)N[C@H](C)c2ccccc2)C(=O)N[C@@H](Cc2ccc(O)cc2)C(N)=O)cc1 (some centres unmarked) [Compound 10]",
    "endpoint": "Target",
    "result": "Cat B"
  }
]

# input Request: Target, test system cathepsin targets, entry Cc1ccc(C[C@H](NC(=O)C2OC2C(=O)NCC(C)C)C(=O)N[C@@H](Cc2ccc(O)cc2)C(N)=O)cc1 (some centres unmarked) [Compound 17]
# output Cat B

# input Hi! What's the reported Target for CCC[C@H](NC(=O)[C@@H]1O[C@H]1C(=O)O)C(=O)NCc1cccc2ccccc12 [Compound 115] on cathepsin targets?
# output Cat Z

# input Provide value of Target for this record tested with cathepsin targets: CCC[C@H](NC(=O)C1O[C@@H]1C(=O)NCCc1ccc(-c2ccccc2)cc1)C(=O)NCCc1ccccn1 (some centres unmarked) [Compound 106]
# output Cat B

# input Query Target on cathepsin targets for Cc1ccc(C[C@H](NC(=O)C2OC2C(=O)NCCCCCCO)C(=O)N[C@@H](Cc2ccc(O)cc2)C(N)=O)cc1 (some centres unmarked) [Compound 13]
# output Cat B

# input Param readout = Target; param system = cathepsin targets; param query = CC(C)CNC(=O)C1OC1C(=O)N[C@@H](CC(C)C)C(=O)N[C@@H](Cc1ccc(O)cc1)C(N)=O (some centres unmarked) [Compound 57] ; response: value
# output Cat B

# input Give cathepsin targets Target for CC(C)C[C@H](NC(=O)C1OC1C(=O)NCCN1CCOCC1)C(=O)N[C@@H](Cc1ccc(O)cc1)C(N)=O (some centres unmarked) [Compound 23]
# output Cat B

---

- assayed target: CatZ (Cathepsin Z) (Rattus norvegicus, UniProt Q9R1T3)
- Construct: from tissue; host or cells: rat liver lysate
- Sequence (Q9R1T3 64-306): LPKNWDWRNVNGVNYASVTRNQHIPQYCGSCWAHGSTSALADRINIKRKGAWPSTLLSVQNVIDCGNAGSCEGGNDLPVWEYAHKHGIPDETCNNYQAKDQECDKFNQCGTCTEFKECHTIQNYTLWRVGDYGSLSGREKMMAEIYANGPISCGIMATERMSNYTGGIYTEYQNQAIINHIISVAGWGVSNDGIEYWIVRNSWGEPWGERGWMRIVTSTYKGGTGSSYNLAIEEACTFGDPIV
- procedure summary: IC50 by competition with radiolabeled general cathepsin probe DCG-04 in rat liver lysate
- Format: biochemical
- conditions used: 1 mg/ml rat liver lysate, inhibitor 20 minutes, then DCG-04 1 hour
Item-by-item account of pIC50
To interpret pIC50, take it as minus log10 of a concentration measured in moles per litre.

Study these solved cases before continuing.
[
  {
    "compound": "CC(C)C[C@H](NC(=O)C1OC1C(=O)O)C(=O)N[C@@H](Cc1ccc(O)cc1)C(N)=O (stereo partly shown)",
    "assayed target": "CatZ (Cathepsin Z) (Rattus norvegicus, UniProt Q9R1T3)",
    "pIC50": 7.00
  },
  {
    "compound": "CC(C)C[C@H](NC(=O)[C@H]1O[C@@H]1C(=O)NCCc1ccc(O)cc1)C(=O)NCc1cccc2ccccc12",
    "assayed target": "CatZ (Cathepsin Z) (Rattus norvegicus, UniProt Q9R1T3)",
    "pIC50": 6.10
  }
]

# input Please give the measured pIC50 for this compound: CC(C)C[C@H](NC(=O)C1OC1C(=O)NCCCO)C(=O)N[C@@H](Cc1ccc(O)cc1)C(N)=O (stereo partly shown)
# output 5.96

---

- assayed target: CatC (Rattus norvegicus)
- Sequence (P80067 25-462): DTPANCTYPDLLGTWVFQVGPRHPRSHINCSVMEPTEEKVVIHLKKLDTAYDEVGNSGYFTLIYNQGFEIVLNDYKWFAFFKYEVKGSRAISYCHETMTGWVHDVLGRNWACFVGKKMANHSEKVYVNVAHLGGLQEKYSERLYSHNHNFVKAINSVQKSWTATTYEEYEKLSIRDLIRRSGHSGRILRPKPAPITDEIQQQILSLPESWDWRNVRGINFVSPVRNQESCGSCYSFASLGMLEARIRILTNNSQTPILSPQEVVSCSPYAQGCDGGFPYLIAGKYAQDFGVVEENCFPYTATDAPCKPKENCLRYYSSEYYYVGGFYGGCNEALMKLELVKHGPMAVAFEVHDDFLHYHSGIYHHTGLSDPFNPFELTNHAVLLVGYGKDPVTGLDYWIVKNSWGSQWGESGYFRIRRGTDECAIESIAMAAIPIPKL
- procedure summary: IC50 by competition with radiolabeled general cathepsin probe DCG-04 in rat liver lysate
- conditions used: 1 mg/ml rat liver lysate, inhibitor 20 minutes, then DCG-04 1 hour
pIC50: −log10 of the molar value.
endpoint: pIC50

Example compounds with recorded pIC50:
[
  {
    "compound": "CCC[C@H](NC(=O)C1O[C@@H]1C(=O)NCC(=O)O)C(=O)N[C@@H](Cc1ccc(O)cc1)C(N)=O (stereo partly shown) [Compound 79]",
    "result": 4.71
  },
  {
    "compound": "Cc1ccc(C[C@H](NC(=O)[C@H]2OC2C(=O)NCC(=O)O)C(=O)N[C@@H](Cc2ccc(O)cc2)C(N)=O)cc1 (stereo partly shown) [Compound 16]",
    "result": "< 5.00"
  },
  {
    "compound": "CC(C)C[C@H](NC(=O)[C@H]1O[C@@H]1C(=O)NCCc1ccc(O)cc1)C(=O)NCCc1ccccn1 [Compound 63]",
    "result": "< 5.00"
  }
]

Field: next compound
# input What value of pIC50 has been recorded for this entry: CC(C)C[C@H](NC(=O)C1OC1C(=O)NCCc1ccc(O)cc1)C(=O)N[C@@H](Cc1ccc(O)cc1)C(N)=O (single isomer, unassigned) [Compound 46]
# output < 4.30

---

- assayed target: CatB (Rattus norvegicus)
- Sequence (P00787 80-333): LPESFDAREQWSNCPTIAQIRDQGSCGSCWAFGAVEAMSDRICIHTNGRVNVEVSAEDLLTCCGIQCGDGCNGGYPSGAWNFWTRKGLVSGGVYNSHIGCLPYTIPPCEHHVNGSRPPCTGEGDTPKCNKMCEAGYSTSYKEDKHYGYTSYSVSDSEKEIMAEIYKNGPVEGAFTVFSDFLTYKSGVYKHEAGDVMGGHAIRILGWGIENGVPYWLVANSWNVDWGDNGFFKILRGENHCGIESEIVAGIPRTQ
- procedure summary: IC50 by competition with radiolabeled general cathepsin probe DCG-04 in rat liver lysate
- conditions used: 1 mg/ml rat liver lysate, inhibitor 20 minutes, then DCG-04 1 hour
Entries and their pIC50
Keep in mind that pIC50 stands for -log10 of concentration in molar terms.

Sample answers from the record:
[
  {
    "compound": "CC(C)C[C@H](NC(=O)C1OC1C(=O)NCCCO)C(=O)N[C@@H](Cc1ccc(O)cc1)C(N)=O (stereo partly shown) [Compound 31]",
    "endpoint": "pIC50",
    "readout number": 8.00
  },
  {
    "compound": "CCC[C@H](NC(=O)C1O[C@H]1C(=O)NCC(=O)O)C(=O)N[C@@H](Cc1ccc(O)cc1)C(N)=O (stereo partly shown) [Compound 78]",
    "endpoint": "pIC50",
    "readout number": 6.55
  },
  {
    "compound": "CC(C)C[C@H](NC(=O)C1O[C@H]1C(=O)NCCCO)C(=O)N[C@@H](Cc1ccc(O)cc1)C(N)=O (stereo partly shown) [Compound 52]",
    "endpoint": "pIC50",
    "readout number": 7.30
  },
  {
    "compound": "NC(=O)[C@H](Cc1ccc(O)cc1)NC(=O)[C@H](CC1CCCCC1)NC(=O)C1OC1C(=O)O (stereo partly shown) [Compound 74]",
    "endpoint": "pIC50",
    "readout number": 5.71
  },
  {
    "compound": "CC(C)C[C@H](NC(=O)[C@H]1O[C@@H]1C(=O)NCCc1ccc(O)cc1)C(=O)NCc1cccc2ccccc12 [Compound 66]",
    "endpoint": "pIC50",
    "readout number": 6.49
  }
]

# input // pIC50 lookup, key: CCC[C@H](NC(=O)C1O[C@H]1C(=O)O)C(=O)N[C@@H](Cc1ccc(O)cc1)C(N)=O (stereo partly shown) [Compound 75]
# output 6.57
